Ref: ChEMBL document CHEMBL1143774

Test: Drug level in Sprague-Dawley rat liver after 1 hr
Assay type: ADME, tissue-based
Conditions: read-out: Activity
Measurement kind: concentration at 1 h (ng/g)
I only need the number, in ng/g, no unit after it.

State its concentration at 1 h for this molecule: CC#C[C@]1(O)CC[C@H]2[C@@H]3CCC4=CC(=O)CCC4=C3[C@@H](c3ccc(N(C)Cc4ccc(C(C)C(=O)O)cc4)cc3)C[C@@]21C (stereo partly specified)
37000

* * *

Molecular target: Glucocorticoid receptor (Homo sapiens)
Sequence (P04150 whole entry): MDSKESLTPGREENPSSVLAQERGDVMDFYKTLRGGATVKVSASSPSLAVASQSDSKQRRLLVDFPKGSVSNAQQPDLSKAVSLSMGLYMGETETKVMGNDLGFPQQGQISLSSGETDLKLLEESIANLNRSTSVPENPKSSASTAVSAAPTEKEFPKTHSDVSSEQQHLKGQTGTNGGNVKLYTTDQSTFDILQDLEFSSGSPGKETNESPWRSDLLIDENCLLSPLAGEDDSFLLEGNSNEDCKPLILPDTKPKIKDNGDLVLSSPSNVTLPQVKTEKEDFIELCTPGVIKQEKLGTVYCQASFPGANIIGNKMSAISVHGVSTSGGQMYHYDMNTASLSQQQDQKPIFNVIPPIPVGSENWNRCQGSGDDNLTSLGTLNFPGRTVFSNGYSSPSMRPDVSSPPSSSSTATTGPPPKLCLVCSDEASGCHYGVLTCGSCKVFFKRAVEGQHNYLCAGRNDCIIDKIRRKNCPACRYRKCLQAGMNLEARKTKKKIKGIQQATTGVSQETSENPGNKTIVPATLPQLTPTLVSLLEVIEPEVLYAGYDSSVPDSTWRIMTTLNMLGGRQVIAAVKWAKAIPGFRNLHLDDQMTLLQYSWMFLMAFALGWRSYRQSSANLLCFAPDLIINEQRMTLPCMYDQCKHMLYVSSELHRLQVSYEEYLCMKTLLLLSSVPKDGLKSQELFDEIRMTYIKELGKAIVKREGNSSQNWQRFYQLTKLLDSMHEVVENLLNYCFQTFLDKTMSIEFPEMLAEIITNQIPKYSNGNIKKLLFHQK
Assay: Inhibition of human GR expressed in hGRAF cells
Assay type: cell-based
Exercise: state measured Ki for each of the compounds provided.
I only need the number, in nM, no unit after it.

State its Ki for this compound: `CC#C[C@]1(O)CC[C@H]2[C@@H]3CCC4=CC(=O)CCC4=C3[C@@H](c3ccc(N(C)CC(=O)N(Cc4ccccc4)Cc4ccc(C(=O)O)cc4)cc3)C[C@@]21C`
39

State its Ki for this compound: `CC#C[C@]1(O)CC[C@H]2[C@@H]3CCC4=CC(=O)CCC4=C3[C@@H](c3ccc(N(C)CC(=O)Nc4ccc(C(=O)O)cc4)cc3)C[C@@]21C`
91.8

State its Ki for this compound: `CC#C[C@]1(O)CC[C@H]2[C@@H]3CCC4=CC(=O)CCC4=C3[C@@H](c3ccc(N(C)Cc4cccc(C(=O)O)c4)cc3)C[C@@]21C`
30

State its Ki for this compound: `CC#C[C@]1(O)CC[C@H]2[C@@H]3CCC4=CC(=O)CCC4=C3[C@@H](c3ccc(N(C)Cc4ccc(C(=O)O)cc4)cc3)C[C@@]21C`
12

State its Ki for this compound: `CC#C[C@]1(O)CC[C@H]2[C@@H]3CCC4=CC(=O)CCC4=C3[C@@H](c3ccc(N(C)Cc4ccc(C(=O)NCC(=O)O)cc4)cc3)C[C@@]21C`
90

State its Ki for this compound: `CC#C[C@]1(O)CC[C@H]2[C@@H]3CCC4=CC(=O)CCC4=C3[C@@H](c3ccc(N(C)Cc4ccc(CC(=O)O)cc4)cc3)C[C@@]21C`
4.4
